SYSTEM: T1, FGFR4 expressed on the surface of RMS cells (Rh4-FR4 wt, Rh30) (human, UniProt P22455 22-802)
T1 construct: Endogenous FGFR4 of the rhabdomyosarcoma cell lines; The whole entry includes the signal peptide; also called cell-surface FGFR4; Rh4-FR4 wt cells
T1 sequence (P22455 22-802 limits assumed): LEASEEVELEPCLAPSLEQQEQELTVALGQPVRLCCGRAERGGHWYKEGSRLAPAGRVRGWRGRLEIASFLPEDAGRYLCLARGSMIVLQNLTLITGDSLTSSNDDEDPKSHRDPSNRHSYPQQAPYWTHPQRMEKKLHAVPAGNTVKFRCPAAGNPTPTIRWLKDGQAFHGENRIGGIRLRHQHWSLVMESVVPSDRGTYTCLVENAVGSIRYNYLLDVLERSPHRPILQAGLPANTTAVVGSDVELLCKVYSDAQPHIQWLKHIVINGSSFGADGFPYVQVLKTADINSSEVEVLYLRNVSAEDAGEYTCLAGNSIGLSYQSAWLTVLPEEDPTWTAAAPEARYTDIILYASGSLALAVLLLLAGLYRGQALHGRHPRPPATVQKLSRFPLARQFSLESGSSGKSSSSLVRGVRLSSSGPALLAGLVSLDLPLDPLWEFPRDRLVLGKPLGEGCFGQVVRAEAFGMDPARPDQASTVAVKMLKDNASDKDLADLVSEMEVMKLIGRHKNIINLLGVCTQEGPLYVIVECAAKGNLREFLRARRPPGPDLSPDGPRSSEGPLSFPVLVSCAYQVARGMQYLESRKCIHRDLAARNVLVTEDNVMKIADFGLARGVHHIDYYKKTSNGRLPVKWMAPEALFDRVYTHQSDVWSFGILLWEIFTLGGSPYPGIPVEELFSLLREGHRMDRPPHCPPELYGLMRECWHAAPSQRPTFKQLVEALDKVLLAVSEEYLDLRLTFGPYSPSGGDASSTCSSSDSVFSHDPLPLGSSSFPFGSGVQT
ASSAY OVERVIEW: flow cytometry of DiR fluorescence, liposomes at 0.5 mM lipid on Rh4-FR4 wt cells, 2 h at 37 °C
PROPERTY NAME: MFI
Please answer using the number first and the unit second.

## Input Report MFI for L-F8, VCR-loaded fluorescent liposomes decorated with nanobody F8 (other, C-terminal cysteine coupled to DSPE-PEG-maleimide on the liposomal surface, Liposome as for L-A8; also called FGFR4-targeted liposomes; not shown: C-terminal Myc/6xHis-tag and an additional cysteine) VHH: EVQLVESGGGLVQPGGSLRLSCAASGTGYALDDMGWVRQAPGKGLEWVSAISDDESMADYYADSVKGRFTISRDNSKNTVYLQMNSLRAEDTAVYYCASYKEYKYQSGHHYFAYRGQGTLVTVSS
## Output 1400 MFI

## Input State, in one line, measured MFI of L-B1, VCR-loaded fluorescent liposomes decorated with nanobody B1 (other, C-terminal cysteine coupled to DSPE-PEG-maleimide on the liposomal surface, Liposome as for L-A8; also called FGFR4-targeted liposomes; not shown: C-terminal Myc/6xHis-tag and an additional cysteine) VHH: EVQLQASGGGFVQPGGSLRLSCAASGYTSRSSAMGWFRQAPGKEREFVSAISDLTGYPYYYADSVKGRFTISRDNSKNTVYLQMNSLRAEDTATYYCAAYQDDKWTYGSQHGKYWGQGTQVTVSS
## Output 600 MFI

## Input Note down MFI recorded for L-A8, VCR-loaded fluorescent liposomes decorated with nanobody A8 (other, C-terminal cysteine coupled to DSPE-PEG-maleimide on the liposomal surface, Liposome of egg sphingomyelin, cholesterol, PEG-ceramide, DSPE-PEG-maleimide and DiR, loaded with vincristine; also called FGFR4-targeted liposomes; not shown: C-terminal Myc/6xHis-tag and an additional cysteine) VHH: EVQLQASGGGFVQPGGSLRLSCAASGRTYSRDTMGWFRQAPGKEREFVSAISSRHSHTTYYADSVKGRFTISRDNSKNTVYLQMNSLRAEDTATYYCAEWDVFDMHYALPPMWYWGQGTQVTVSS
## Output 300 MFI

## Input // Input: L-B5, VCR-loaded fluorescent liposomes decorated with nanobody B5 (other, C-terminal cysteine coupled to DSPE-PEG-maleimide on the liposomal surface, Liposome as for L-A8; also called FGFR4-targeted liposomes; not shown: C-terminal Myc/6xHis-tag and an additional cysteine) VHH: EVQLQASGGGFVQPGGSLRLSCAASGRTSWLTTMGWFRQAPGKEREFVSAISSFSSKQGYYADSVKGRFTISRDNSKNTVYLQMNSLRAEDTATYYCAYASYPRHQGNGRWKDFVEYWGQGTQVTVSS . Output its MFI only.
## Output 1700 MFI

Entry source: patent US20260191907A1
